- Test system: Human papillomavirus type 1a E7 protein (residues 1-88)
- protocol_details: HPV1a E7 small-molecule binders, primary screen, biochemical, small-molecule microarray, residues 1-88, 635 nm (AID 1129)
- conditions_used: small-molecule microarray binding, fluorescence 635 nm; higher = more signal
As shown below, each of these compounds has a reported composite z-score value.
API note: the answer field is a bare number with no unit suffix.

**Q:** Would you mind telling me what composite z-score value was observed for `CCOC(=O)C1=C[C@@H](C(C)(C)C)N(S(=O)(=O)c2ccc(C)cc2)[C@H]1c1ccccc1Cl` ?
**A:** 1.2

New cases:
**Q:** Name the recorded composite z-score for `NC(=O)[C@@]1(CCS(=O)(=O)c2ccccc2)COC(c2ccc(OCCCO)cc2)=N1` .
**A:** -0.201

**Q:** Request: `C=C(CCCC)C(=O)CC[C@H](OC(C)=O)c1ccccc1OCCO`
**A:** -0.167

**Q:** # repeat for `COC(=O)[C@@H]1N=C(c2ccc(OCCCO)cc2)O[C@@H]1c1ccccc1CN=[N+]=[N-]`
**A:** 0.943

**Q:** Please answer likewise for C=CCC(OC(C)=O)[C@@H]1[C@@H](N(Cc2ccc(-c3cccc(C(F)(F)F)c3)o2)C(=O)Cc2ccc(F)cc2)c2cc(OCCCO)ccc2N1C(=O)c1ccc2ccccc2c1 (stereo partly specified)
**A:** -0.783

**Q:** Try `COC(=O)[C@@]1(CCS(=O)(=O)c2ccccc2)N=C(c2ccc(OCCCO)cc2)O[C@H]1c1ccccc1N=[N+]=[N-]` next.
**A:** 1.21

**Q:** Follow-up entry: `COC(=O)[C@@]1(Cc2ccc(F)cc2)[C@H]2c3cc(C(=O)N4CCCC4)n(CCO)c3C[C@H]2CN1C(=O)c1ccccc1`
**A:** 1.05

**Q:** Same question, `CCCCC(=C=CC[C@@H](O)c1cccc(OCCO)c1)CCO` this time
**A:** -0.437

**Q:** Please give the result for `C=CC[C@@]1(C(=O)N(C)C)N=C(c2ccc(OCCCO)cc2)O[C@@H]1c1ccccc1` too.
**A:** 1.24

**Q:** Further, for O=C1NC(=O)C2C1C=CC(C(O)c1ccc(F)cc1)N2Nc1ccccn1 (stereo unspecified) ?
**A:** 0.399

**Q:** Also `Cc1ccc(S[C@]2(C(=O)NC3CC3)CC(=O)N(Cc3cc(C(F)(F)F)cc(C(F)(F)F)c3)[C@@H]2c2ccc(CO)cc2I)cc1` , if possible.
**A:** 1.03

**Q:** Subsequent entry: C[C@H]1NC(=O)C([C@@H](C)OCc2ccccc2)NC(=O)[C@@]23C(=O)N[C@@H](Cc4ccccc4)C2[C@H](C)[C@@]2(C)O[C@H]2C3/C=C/C/C=C\CNC1=O (stereo partly specified)
**A:** -0.728

**Q:** What about this compound? `C=CC[C@]1(C(=O)NCCCOC)N=C(c2ccc(OCCCO)cc2)O[C@H]1c1ccccc1`
**A:** 1.21

**Q:** Do the same for `CCCCC(=C=CC[C@@H](O)c1cccc(OCCO)c1)C[C@@H](O)COCc1ccccc1` please
**A:** -0.122

**Q:** Quick one: `COc1ccc(CCNC(=O)[C@@]2(C)c3ccccc3C(=O)N(Cc3cc(C(F)(F)F)cc(C(F)(F)F)c3)[C@H]2c2ccc(CO)cc2)cc1`
**A:** 1.07

**Q:** Follow-up item: CC(c1ccccc1)C(O)C1C=CC2C(=O)N(c3ccccc3)C(=O)C2N1Nc1ccc(C#N)cc1 (stereo unspecified)
**A:** 1.22

* * *

- protocol_details: MM1S myeloma cell viability, profiling panel, resazurin fluorescence, basal, 24 h, PK04 Diversity Set (AID 1174);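 also: MM1S multiple myeloma cell line; test concentration not given here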
- conditions_used: higher = more signal, called active from +8 up or from −8 down
Please use label 1 whenever z-score is not below -0.2, and label 0 whenever it is.

**Q:** Has `COc1ccc([Si](C)(C)[C@@H]2[C@@H](CCO)O[C@]3(C(=O)N(Cc4ccccc4)c4ccc(N5C(=O)c6ccccc6Oc6ccccc65)cc43)[C@H]2C)cc1` a recorded z-score greater than or equal to -0.2?
**A:** label 0

**Q:** Note, next up: `CC(C)=CCN(C(=O)C#Cc1ccccc1)[C@H](CO)c1ccccc1`
**A:** label 0

**Q:** Another compound to check: `C=CCN1C(=O)[C@]2(O[C@H](CCn3cc([C@H](O)c4ccccc4)nn3)[C@@H]([Si](C)(C)c3ccc(OC)cc3)[C@@H]2C)c2cc(N3C(=O)c4cccc5cccc3c45)ccc21`
**A:** label 0

Next:
**Q:** Textbook exercise: given the entry COc1cc2c(cc1O)C(C1CC1)N(Cc1ccc([N+](=O)[O-])o1)CC2 (stereo not drawn) , state whether its z-score is greater than or equal to -0.2.
**A:** label 1

**Q:** Now try `O=C1O[C@@H](c2ccccc2)[C@@H](c2ccccc2)N2[C@@H](c3ccc(O)cc3)[C@]3(C(=O)Nc4ccc(C#CC5=CCCCC5)cc43)[C@@H](C(=O)N3CCCCCCC3)[C@H]12` .
**A:** label 1

**Q:** // next record `CN(C)C(=O)[C@]1(Cc2ccccc2)N=C(c2ccc(OCCCO)cc2)O[C@@H]1c1ccccc1`
**A:** label 1

**Q:** Do the same for O=C1C2C=CC(C(O)C(c3ccccc3)c3ccccc3)N(Nc3ccccc3)C2C(=O)N1c1ccccc1 (stereo not drawn) please
**A:** label 0

* * *

- protocol_details: binders of probe aFGF2 on microarray, primary screen, stem cell growth factor project, biochemical, small-molecule microarray, fluorescence 635/667 (AID 1067);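 also: measures binding of biotinylated aFGF2 protein to printed compounds on slides; z-score merges feature fluorescence and signal-to-noise across triplicate slides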
- conditions_used: higher = more signal
reported_property: composite z-score
// response body must contain only the number

**Q:** Which composite z-score is reported for this compound? `CC(C)C(=C=CC[C@@H](O)c1ccc(OCCO)cc1)CCO`
**A:** -0.128

**Q:** Same question for `COCCCNC(=O)[C@@H]1c2ccccc2C(=O)N(Cc2cc(C(F)(F)F)cc(C(F)(F)F)c2)[C@H]1c1ccc(CO)cc1` please.
**A:** -0.182

**Q:** Repeat for the following compound: CCCCCN1CC=CC23O[C@@H]4C=CCOC(=O)[C@@H]4[C@H]2C(=O)N(CCCCCO)[C@@H]3C1=O (some centres not stated)
**A:** -0.113

**Q:** How about this compound: `O=C1O[C@H](c2ccccc2)[C@H](c2ccccc2)N2[C@H]1[C@@H](C(=O)N1CCN(c3ncccn3)CC1)[C@]1(C(=O)Nc3ccccc31)[C@H]2c1ccc(O)cc1`
**A:** -0.0718

**Q:** Item: `[N-]=[N+]=NCc1ccccc1[C@@H]1OC(c2ccc(OCCCO)cc2)=N[C@]1(Cc1ccccc1)C(=O)NCc1ccccc1`
**A:** 0.227

Next:
**Q:** Quick check: composite z-score of `COC(=O)[C@@]1(Cc2ccc(OC)cc2)[C@@H]2[C@@H](CC(=O)[C@H]2CC(=O)C(=O)N2CCCC2)CN1C(=O)c1ccccc1` ?
**A:** 0.926

**Q:** // repeat for CCCCN1CC=CC23O[C@@H]4C=CCOC(=O)[C@@H]4[C@H]2C(=O)N(CCO)[C@@H]3C1=O (some centres not stated) and report
**A:** -0.168

* * *

- Test system: Human papillomavirus type 1a protein E7 (residues 44-93)
- protocol_details: HPV1a E7 fragment binders on microarrays, primary screen, biochemical, small-molecule microarray, residues 44-93, 635 nm fluorescence (AID 1108);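 also: E7 fragment applied at 1 µg/mL in TBST for 1 h at 4 C; score combines spot fluorescence with its signal to noise ratio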
- conditions_used: small-molecule microarray binding, fluorescence 635 nm; higher = more signal
reported_property: composite z-score

Completed entries (count: 3):
**Q:** For the compound shown here, `CCCCC(=C=CC[C@@H](O)c1cccc(OCCO)c1)CCO` , give the reported composite z-score.
**A:** -0.333

**Q:** // next record `C=CCNC(=O)[C@H]1[C@@H]2C(=O)O[C@@H](c3ccccc3)[C@@H](c3ccccc3)N2[C@@H](c2ccc(O)cc2)[C@]12C(=O)Nc1ccc(C#CC3=CCCCC3)cc12`
**A:** 1.32

**Q:** Also, `NCCCC[C@@H]1NC(=O)[C@H]2C[C@@H](C(=O)NCc3ccc(F)cc3)[C@@H](c3cccc(OCCO)c3)N2C1=O` please.
**A:** 1.43

Continuing:
**Q:** Given O=C1C2C=CC(C(O)c3cccs3)N(Nc3ccccc3)C2C(=O)N1c1ccccc1 (stereo not given) , state its recorded composite z-score.
**A:** 0.407

* * *

- protocol_details: small-molecule microarray binders of probe aDKK1, primary screen, biochemical, biotinylated probe, 635/667 nm fluorescence (AID 1099);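 also: score merges 667nm spot fluorescence with signal to noise across triplicate slides; reference of the scale not given here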
- conditions_used: higher = more signal
# if value of composite z-score reaches 0.05, tag Met; if it stays below, tag Not met

Illustrative cases are given below, each with its answer.
**Q:** // inclusive: composite z-score at least 0.05? input: `C[N+](C)(C)CCCCCCNC(=O)[C@H]1C[C@H]2C(=O)NCC(=O)N2[C@H]1c1cccc(OCCO)c1`
**A:** Not met

**Q:** Entry to check: `CCOC(=O)C1=CC[C@@H](c2ccccc2Cl)N(S(=O)(=O)c2ccc(C)cc2)[C@H]1c1cccc(OC)c1`
**A:** Not met

**Q:** What about `CN(C)CCCCNC(=O)[C@H]1C[C@H]2C(=O)NCC(=O)N2[C@H]1c1cccc(OCCO)c1` ?
**A:** Not met

**Q:** Repeat for the following molecule: `CN(C)CCCCNC(=O)[C@H]1C[C@H]2C(=O)N[C@@H](Cc3ccccc3)C(=O)N2[C@H]1c1cccc(OCCO)c1`
**A:** Not met

**Q:** Query CCCCN1CC=CC23O[C@@H]4C=CCOC(=O)[C@@H]4[C@H]2C(=O)N(CCO)[C@@H]3C1=O (stereo not given in full) next
**A:** Met

New cases:
**Q:** Given the entry CN1C=C(C(=O)OCCS(C)(=O)=O)C(C(=O)OCCS(C)(=O)=O)=CC(CCCO)=CC1c1ccc(CN2CCCC2)cc1 (stereo not given) , answer whether its composite z-score meets or surpasses 0.05.
**A:** Met

**Q:** And the next one, CCCCC(O)C1C=CC2C(=O)NC(=O)C2N1Nc1ccccn1 (stereo not given) ?
**A:** Not met

**Q:** Then this molecule: `O=c1cccc(-c2ccccc2C(F)(F)F)o1`
**A:** Met

**Q:** And what about the molecule CCOC(=O)C1=CCC(c2cc3ccccc3[nH]2)N(S(=O)(=O)c2ccccc2[N+](=O)[O-])C1 (stereo not given) ?
**A:** Met

**Q:** What about CCCCC(O)C1C=CC2C(=O)N(C)C(=O)C2N1Nc1ccccc1 (stereo not given) ?
**A:** Met
